target: human glucagon receptor (human, UniProt P47871 26-477); test: cell-based or functional assay
Sequence (P47871 26-477): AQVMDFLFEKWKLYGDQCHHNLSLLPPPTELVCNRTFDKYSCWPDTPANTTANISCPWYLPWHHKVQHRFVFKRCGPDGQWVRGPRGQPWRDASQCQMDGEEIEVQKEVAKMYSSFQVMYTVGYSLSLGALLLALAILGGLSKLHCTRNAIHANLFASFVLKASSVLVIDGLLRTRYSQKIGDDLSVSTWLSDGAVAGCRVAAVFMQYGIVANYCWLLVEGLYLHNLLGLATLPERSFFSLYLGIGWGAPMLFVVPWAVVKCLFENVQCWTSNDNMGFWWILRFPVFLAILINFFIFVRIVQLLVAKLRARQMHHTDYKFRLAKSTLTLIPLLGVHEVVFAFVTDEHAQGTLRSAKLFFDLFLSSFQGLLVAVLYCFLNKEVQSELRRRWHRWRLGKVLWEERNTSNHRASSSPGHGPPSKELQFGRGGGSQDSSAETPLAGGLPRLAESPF
Numbered stars: 1 amine (or outer) side, 2 acyl side, 3 side chain; on linkers, the order of the positions; unused ones are H or OH. Square brackets hold non-standard residues; d marks the D form. Side chains are listed from the residue outwards. Ends that are not written are not given here. γGlu = O=C(O)[C@H](CCC(=O)[*:2])N[*:1]; x53 = not defined here; Aib = CC(C)(N)C(=O)O
measured-parameter: EC50 hGlucagon-R (cAMP) (pM)
Write the answer as a number in pM, unit excluded.

* HXQGTFTSDLSKQKESRRAQDFIEWLKNGGPSSGAPPPK (dSer at 2; K(γE-x53) at 14; C-terminal NH2) [SEQ ID NO: 113] | 5.4
* HXQGTFTSDLSKQKESRAAQDFIEWLKAGGPSSGAPPPS (dSer at 2; K(γE-x60) at 14; C-terminal NH2) [SEQ ID NO: 57] | 8

Now take the following binder into account.
Data point: H[Aib]QGTFTSDLSKQK([γGlu-x53])ESQAAQDFIEWLKAGGPSSGAPPPS-NH2 (reading uncertain) [SEQ ID NO: 36] ; EC50 hGlucagon-R (cAMP) = 45.9
